Values compiled from ChEMBL document CHEMBL1142693.

# System: CAKI-1
# procedure summary: Inhibitory concentration againstHuman Caki-1 Renal CellCarcinoma Cell Lines (CD70+) at 4th hour; n=1
# Format: functional, cell-based
# assay conditions: Homo sapiens
Assignment: determine reported pIC50 for the given molecules.
Numbers only, as −log10 of the molar value.

The examples below pair each entry with its known result.
molecule="COc1ccc(/C=C/C(=O)N2CC(CCl)c3c2cc(N)c2ccccc32)cc1 (stereo not drawn)" recorded_result=9.23
molecule="COc1cc2c(c(OC)c1OC)NC(C(=O)N1CC(CCl)c3c1cc(O)c1ncccc31)C2 (stereo not drawn)" recorded_result=9.26

Please turn your attention to the following entry.
Entry under test: "CO[C@@]12[C@H](COC(N)=O)C3=C(C(=O)C(C)=C(N)C3=O)N1C[C@@H]1N[C@@H]12" . Its pIC50 was 6.60
